# Test Method Notes: Hydrolysis of Pertuzumab conjugated samples obtained using different small molecule compounds, hydrolysis percentage by Native MS
# Assay type: physicochemical
# Test Parameters: Pertuzumab conjugate; 50 mM PB pH 7.8, 35° C., 6 h; Native MS
*1 amine or outer side, *2 acyl side, *3 side chain or, on linkers, in order; H or OH if unused. Where a SMILES comes first, the peptide text is derived from it. [ ]: non-standard residue; d: D form. The star is where a group is joined. ξ: configuration not given here. Dil(5ξ) = CCC(C)[C@@H]([C@@H](CC(=O)[*:2])OC)N(C)[*:1]; Dolaproine = CO[C@@H]([C@@H]1CCCN1)[C@@H](C)C(=O)O; Hexanoyl(6-maleimido) = O=C1C=CC(=O)N1CCCCCC(=O)*; PABC = O=C(OCc1ccc(N[*:1])cc1)[*:2]; X1 = C[C@@H](N*)[C@@H](O)c1ccccc1; Cit = NC(=O)NCCC[C@H](N)C(=O)O; NMeV = CN[C@H](C(=O)O)C(C)C
Record form. Attribute: 6 h hydrolysis percentage. Fill in for each entry.

For orientation, consider the following solved cases.
- Molecule: "CCC(C)[C@@H]([C@@H](CC(=O)N1CCC[C@H]1[C@H](OC)[C@@H](C)C(=O)N[C@H](C)[C@@H](O)c1ccccc1)OC)N(C)C(=O)[C@@H](NC(=O)[C@H](C(C)C)N(C)C(=O)OCc1ccc(NC(=O)[C@H](CCCNC(N)=O)NC(=O)[C@@H](NC(=O)COCCOCCOCCOc2c(OC)cc(N3C(=O)C(Sc4ccccc4)=C(Sc4ccccc4)C3=O)cc2OC)C(C)C)cc1)C(C)C (some centres unmarked) [A-2]"
  Value Reported: "30.33%"
- Molecule: "CCC(C)[C@@H]([C@@H](CC(=O)N1CCC[C@H]1[C@H](OC)[C@@H](C)C(=O)N[C@H](C)[C@@H](O)c1ccccc1)OC)N(C)C(=O)[C@@H](NC(=O)[C@H](C(C)C)N(C)C(=O)OCc1ccc(NC(=O)[C@H](CCCNC(N)=O)NC(=O)[C@@H](NC(=O)COCCOCCOCCOc2c(F)cc(N3C(=O)C(Sc4ccc(C(=O)N5CCOCC5)cc4)=C(Sc4ccc(C(=O)N5CCOCC5)cc4)C3=O)cc2F)C(C)C)cc1)C(C)C (some centres unmarked) [C-3]"
  Value Reported: "99.56%"
- Molecule: "CCC(C)[C@@H]([C@@H](CC(=O)N1CCC[C@H]1[C@H](OC)[C@@H](C)C(=O)N[C@H](C)[C@@H](O)c1ccccc1)OC)N(C)C(=O)[C@@H](NC(=O)[C@H](C(C)C)N(C)C(=O)OCc1ccc(NC(=O)[C@H](CCCNC(N)=O)NC(=O)[C@@H](NC(=O)COCCOCCOCCOc2ccc(N3C(=O)C(Sc4ccccc4)=C(Sc4ccccc4)C3=O)cn2)C(C)C)cc1)C(C)C (some centres unmarked) [A-5]"
  Value Reported: "16.76%"
- Molecule: "CCC(C)[C@@H]([C@@H](CC(=O)N1CCC[C@H]1[C@H](OC)[C@@H](C)C(=O)N[C@H](C)[C@@H](O)c1ccccc1)OC)N(C)C(=O)[C@@H](NC(=O)[C@H](C(C)C)N(C)C(=O)OCc1ccc(NC(=O)[C@H](CCCNC(N)=O)NC(=O)[C@@H](NC(=O)CCCCCN2C(=O)C=CC2=O)C(C)C)cc1)C(C)C (stereo partly drawn) [D-1] ({Hexanoyl(6-maleimido)}-V[Cit][PABC][NMeV]V[Dil(5ξ)][Dolaproine]-X1)"
  Value Reported: "7.67%"
- Molecule: "CCC(C)[C@@H]([C@@H](CC(=O)N1CCC[C@H]1[C@H](OC)[C@@H](C)C(=O)N[C@H](C)[C@@H](O)c1ccccc1)OC)N(C)C(=O)[C@@H](NC(=O)[C@H](C(C)C)N(C)C(=O)OCc1ccc(NC(=O)[C@H](CCCNC(N)=O)NC(=O)[C@@H](NC(=O)COCCOCCOCCOc2ccc(N3C(=O)C(Sc4ccc(C(=O)NC)cc4)=C(Sc4ccc(C(=O)NC)cc4)C3=O)cc2C(F)(F)F)C(C)C)cc1)C(C)C (some centres unmarked) [B-6]"
  Value Reported: "33.32%"
- Molecule: "CCC(C)[C@@H]([C@@H](CC(=O)N1CCC[C@H]1[C@H](OC)[C@@H](C)C(=O)N[C@H](C)[C@@H](O)c1ccccc1)OC)N(C)C(=O)[C@@H](NC(=O)[C@H](C(C)C)N(C)C(=O)OCc1ccc(NC(=O)[C@H](CCCNC(N)=O)NC(=O)[C@@H](NC(=O)COCCOCCOCCOc2ccc(N3C(=O)C(Sc4ccc(C(=O)NC)cc4)=C(Sc4ccc(C(=O)NC)cc4)C3=O)cc2OC)C(C)C)cc1)C(C)C (some centres unmarked) [B-7]"
  Value Reported: "54.71%"
- Molecule: "CCC(C)[C@@H]([C@@H](CC(=O)N1CCC[C@H]1[C@H](OC)[C@@H](C)C(=O)N[C@H](C)[C@@H](O)c1ccccc1)OC)N(C)C(=O)[C@@H](NC(=O)[C@H](C(C)C)N(C)C(=O)OCc1ccc(NC(=O)[C@H](CCCNC(N)=O)NC(=O)[C@@H](NC(=O)COCCOCCOCCOc2ccc(N3C(=O)C(Sc4ccc(C(=O)N5CCOCC5)cc4)=C(Sc4ccc(C(=O)N5CCOCC5)cc4)C3=O)cc2)C(C)C)cc1)C(C)C (some centres unmarked) [C-1]"
  Value Reported: "98.25%"

Proceeding to the next molecule to report its 6 h hydrolysis percentage.
Inquiry: Retrieve 6 h hydrolysis percentage measured for CCC(C)[C@@H]([C@@H](CC(=O)N1CCC[C@H]1[C@H](OC)[C@@H](C)C(=O)N[C@H](C)[C@@H](O)c1ccccc1)OC)N(C)C(=O)[C@@H](NC(=O)[C@H](C(C)C)N(C)C(=O)OCc1ccc(NC(=O)[C@H](CCCNC(N)=O)NC(=O)[C@@H](NC(=O)COCCOCCOCCOc2ccc(N3C(=O)C(Sc4ccccc4)=C(Sc4ccccc4)C3=O)c(C(F)(F)F)c2)C(C)C)cc1)C(C)C (some centres unmarked) [A-4] and print it.
Reply text: 38.49%

Data origin, for the record: patent US20230372526A1
